# System: Bacillus subtilis
# Assay: Antibacterial activity against Bacillus subtilis MTCC 121 after 24 hrs by agar well diffusion method
# Type: functional
# Condition Context: MTCC 121, 24 h
Value Type: MIC (µg/mL)
// units = µg/mL; emit number, no label

Lookup: Requested field: MIC. Item: Cc1cccc2c3nn4cnnc4sc-3cc12
Found: 4

Lookup: Given CCc1nnc2sc3cc4c(C)cccc4c-3nn12 , state its recorded MIC.
Found: 32

Lookup: What does the record list as MIC for Cc1cccc2c1CC1Sc3nnc(C(C)C)n3N=C21 (stereo not drawn) ?
Found: 8

====

# Tested on: Escherichia coli
# Assay: Antibacterial activity against Escherichia coli MTCC 1652 at 2 mg/ml after 24 hrs by agar well diffusion method
# Type: functional
# Condition Context: MTCC 1652, 24 h, read-out: DIZ
Measured zone of inhibition at 2000 µg/mL values are reported for all entries that follow.
Give a bare numeral; the unit mm is implied.

Here are 6 compounds together with their reported answers.
Cc1cccc2c3nn4c(C(C)C)nnc4sc-3cc12 :: 15
c1ccc(-c2nnc3n2N=C2c4ccccc4CC2S3)cc1 (configuration not stated) :: 18.3
CCCc1nnc2sc3cc4c(C)cccc4c-3nn12 :: 15.6
Cc1cccc2c1CC1Sc3nnc(C)n3N=C21 (configuration not stated) :: 20.6
Cc1cccc2c3nn4cnnc4sc-3cc12 :: 20.6
Cc1cccc2c3nn4c(C)nnc4sc-3cc12 :: 18.6

Lookup: For Cc1cccc2c1CC1Sc3nnc(-c4ccccc4)n3N=C21 (configuration not stated) , what is its reported zone of inhibition at 2000 µg/mL?
Found: 17.3

Lookup: If you can, please state the reported zone of inhibition at 2000 µg/mL value of CC(C)c1nnc2n1N=C1c3ccccc3CC1S2 (configuration not stated) .
Found: 20.6

Lookup: Entry under review: CCc1nnc2n1N=C1c3ccccc3CC1S2 (configuration not stated) . Reported zone of inhibition at 2000 µg/mL?
Found: 18.3

Lookup: For the compound shown here, Cc1cccc2c1CC1Sc3nnc(C(C)C)n3N=C21 (configuration not stated) , give the reported zone of inhibition at 2000 µg/mL.
Found: 21.6

Lookup: Form field: reported zone of inhibition at 2000 µg/mL of CCCc1nnc2n1N=C1c3ccccc3CC1S2 (configuration not stated)
Found: 19.3

Lookup: Which measured zone of inhibition at 2000 µg/mL value corresponds to CCc1nnc2sc3cc4c(C)cccc4c-3nn12 ?
Found: 19.3

Lookup: Give its zone of inhibition at 2000 µg/mL value. Item: CCCc1nnc2sc3cc4ccccc4c-3nn12
Found: 18.6

Lookup: Item CCc1nnc2n1N=C1c3cccc(C)c3CC1S2 (configuration not stated) has what recorded zone of inhibition at 2000 µg/mL?
Found: 21

Lookup: Which zone of inhibition at 2000 µg/mL value is on record for Cc1cccc2c1CC1Sc3nncn3N=C21 (configuration not stated) ?
Found: 22.3

Lookup: Would you mind telling me what zone of inhibition at 2000 µg/mL value was observed for CCCc1nnc2n1N=C1c3cccc(C)c3CC1S2 (configuration not stated) ?
Found: 19.3

Lookup: Requested read-out: zone of inhibition at 2000 µg/mL. Entry: Cc1cccc2c3nn4c(-c5ccccc5)nnc4sc-3cc12
Found: 15.6

====

The entries below come with measured zone of inhibition at 2000 µg/mL values attached.
# Test system: Staphylococcus aureus
# Assay: Antibacterial activity against Staphylococcus aureus MTCC 96 at 2 mg/ml after 24 hrs by agar well diffusion method
# Type: functional
# Condition Context: MTCC 96, 24 h, read-out: DIZ
Express the result in mm but write the number alone.

CCc1nnc2n1N=C1c3ccccc3CC1S2 (configuration not stated) :: 25.3
CC(C)c1nnc2sc3cc4ccccc4c-3nn12 :: 15.6
c1ccc2c3nn4cnnc4sc-3cc2c1 :: 14.3

Lookup: GET /values?readout=zone of inhibition at 2000 µg/mL&item= CCCc1nnc2n1N=C1c3cccc(C)c3CC1S2 (configuration not stated)
Found: 25.3

Lookup: Look up zone of inhibition at 2000 µg/mL: c1ccc2c(c1)CC1Sc3nncn3N=C21 (configuration not stated)
Found: 15.3

Lookup: For the compound CCCc1nnc2sc3cc4ccccc4c-3nn12 , what zone of inhibition at 2000 µg/mL is on record?
Found: 25.6

Lookup: Can you share its zone of inhibition at 2000 µg/mL? I mean this compound: Cc1cccc2c3nn4c(-c5ccccc5)nnc4sc-3cc12
Found: 18.6

====

# Tested on: Bacillus subtilis
# Assay: Antibacterial activity against Bacillus subtilis MTCC 121 after 24 hrs by agar well diffusion method
# Assay type: functional
# Condition Context: MTCC 121, 24 h
Value Type: MIC (µg/mL)
The figure you give is taken to be in µg/mL; do not add the unit.

Below, each entry is followed by its recorded MIC result.
Cc1cccc2c1CC1Sc3nnc(C)n3N=C21 (stereo not given) :: 2
c1ccc(-c2nnc3sc4cc5ccccc5c-4nn23)cc1 :: 256
Cc1cccc2c3nn4c(C(C)C)nnc4sc-3cc12 :: 64

Lookup: Look up MIC for this compound: c1ccc(-c2nnc3n2N=C2c4ccccc4CC2S3)cc1 (stereo not given)
Found: 128

Lookup: Could you tell me which MIC is on file for Cc1nnc2n1N=C1c3ccccc3CC1S2 (stereo not given) ?
Found: 128

Lookup: For the compound shown here, Cc1nnc2sc3cc4ccccc4c-3nn12 , give the reported MIC.
Found: 256

Lookup: Data request, read-out MIC, for c1ccc2c3nn4cnnc4sc-3cc2c1
Found: 128

Lookup: Which value of MIC has been reported for Cc1cccc2c3nn4c(C)nnc4sc-3cc12 in the records?
Found: 64

Lookup: What value of MIC has been recorded for this entry: CCCc1nnc2n1N=C1c3cccc(C)c3CC1S2 (stereo not given)
Found: 32

Lookup: Given the entry CCCc1nnc2sc3cc4c(C)cccc4c-3nn12 , report its measured MIC.
Found: 64
